Can you tell me cell viability for the items I'm about to list?
# Tested on: SEM cells
# measurement_description: cell viability relative to DMSO control; higher = less cytotoxic
# condition_description: HPLM + 10% dialyzed FBS; 48 h; 0.000781 µM
Give the quantity in %, number only.

Return value of cell viability for input NC[C@H]1CC[C@H](C(=O)O)CC1 , no commentary.
58.2

Return value of cell viability for input C\C1=C\C(=O)OC2=C1C=CC(=C2)O , no commentary.
120

Return value of cell viability for input Cc1cn2c(-c3cn[nH]c3)cnc2c(Nc2ccc(C(=O)N3CCNCC3)cc2F)n1 , no commentary.
105

Return value of cell viability for input Cc1ccc(NC(=O)c2ccc(CN3CCN(C)CC3)cc2)cc1Nc1nc(-c2cccnc2)cs1 , no commentary.
56.2

Return value of cell viability for input CN[S+](=O)([O-])Cc1ccc2[nH]cc(CCN(C)C)c2c1 , no commentary.
95.3

====

# Tested on: P12-Ichikawa
# measurement_description: cell viability relative to DMSO control; higher = less cytotoxic
# condition_description: RPMI 5 mM glucose + 10% FBS; 48 h; 0.00702 µM
metric: cell viability (%)
Give the quantity in %, number only.

Give reported cell viability for C[C@]12CC[C@@H]3c4ccc(OC(=O)N(CCCl)CCCl)cc4CC[C@H]3[C@@H]1CC[C@@H]2OP(=O)([O-])[O-].[Na+].[Na+] (P12-Ichikawa)
117

Give reported cell viability for CC(C)(C)c1cc(NC(=O)Nc2ccc(-c3cn4c(n3)sc3cc(OCCN5CCOCC5)ccc34)cc2)no1 (P12-Ichikawa)
88.1

Give reported cell viability for CC1(C)O[C@@H]2C[C@H]3[C@@H]4CCC5=CC(=O)C=C[C@]5(C)[C@@]4(F)[C@@H](O)C[C@]3(C)[C@]2(C(=O)CO)O1 (P12-Ichikawa)
108

Give reported cell viability for COc1cc2c(cc1-c1c(C)noc1C)ncc1[nH]c(=O)n([C@H](C)c3ccccn3)c12 (P12-Ichikawa)
101

Give reported cell viability for CC1=CC=CC=C1N2\C(=N/C3=C(C(=CC=C3)C)C2=O)C[N]4C=NC5=C4N=CN=C5N (P12-Ichikawa)
107

Give reported cell viability for CC(C)C(C)/C=C/C(C)C1CCC2C3=CC=C4CC(O)CCC4(C)C3CCC21C (stereo not given) (P12-Ichikawa)
98.3

Give reported cell viability for Cc1cc(OCCCc2c(C(=O)O)n(Cc3cccnc3)c3c(-c4c(COc5ccc(N6CCN([S+](C)(=O)[O-])CC6)cc5)nn(C)c4C)cccc23)cc(C)c1Cl (P12-Ichikawa)
96.6

Give reported cell viability for C[C@H](NC(=O)/C(C#N)=C/c1cccc(Br)n1)c1ccccc1 (P12-Ichikawa)
112

Give reported cell viability for C[C@]\12CC[C@H](O)CC1=C/CC3C2CC[C@@]\4(C)C3C\C=C4[N]5C=NC6=C5C=CC=C6 (stereo not given in full) (P12-Ichikawa)
93.8

Give reported cell viability for CC(NC1=CC=CC=C1)C\2=C\C(=C/N3C(=O)\C=C(/N=C23)N4CCOCC4)C (stereo not given) (P12-Ichikawa)
97.4

====

# System: P12-Ichikawa
# measurement_description: cell viability relative to DMSO control; higher = less cytotoxic
# condition_description: RPMI 5 mM glucose + 10% dialyzed FBS; 48 h; 0.00702 µM
Can you tell me cell viability for the items I'm about to list?
Give the quantity in %, number only.

Give reported cell viability for COc1c(C)cnc(Cn2cnc3c(Cl)nc(N)nc32)c1C (P12-Ichikawa)
119

Give reported cell viability for COC1=CC=CC2=C1C(=NC(=N2)C3=CC=CS3)NN4C(=O)\C=C(C)/C4=O (P12-Ichikawa)
94.6

Give reported cell viability for COc1ccc(C[C@@H](C)[C@@H](C)Cc2ccc(OC)c(OC)c2)cc1OC (P12-Ichikawa)
105

Give reported cell viability for CCCCn1c(=O)n(Cc2ccccc2F)c(=O)c2nc(Cc3ccc(NC(C)=O)cc3)[nH]c21 (P12-Ichikawa)
87.2

Give reported cell viability for CC(NC1=CC=CC=C1)C\2=C\C(=C/N3C(=O)\C=C(/N=C23)N4CCOCC4)C (centres undefined) (P12-Ichikawa)
114

Give reported cell viability for O=C(NCC[S+](=O)([O-])c1ccc(C(F)(F)F)cn1)c1ccc(Cl)cc1 (P12-Ichikawa)
121

Give reported cell viability for CC(C)OC(=O)OCOP(=O)(CO[C@H](C)Cn1cnc2c(N)ncnc21)OCOC(=O)OC(C)C.O=C(O)C=CC(=O)O (P12-Ichikawa)
85.9

Give reported cell viability for COc1cc2nc(N(C)CCCNC(=O)C3CCCO3)nc(N)c2cc1OC (centres undefined) (P12-Ichikawa)
76.8

Give reported cell viability for O=NN(CCCl)C(=O)NC1CCCCC1 (P12-Ichikawa)
105

Give reported cell viability for CN(CC#C)C/C1=C/C2=CC=CC=C2OC3=CC=CC=C13 (P12-Ichikawa)
89.8

Give reported cell viability for CCc1cncnc1N1CCN(Cc2nc3cc(C(F)(F)F)ccc3[nH]2)CC1 (P12-Ichikawa)
102

Give reported cell viability for OC1=C(O)C2=C(\C=C/C(=O)O2)C=C1 (P12-Ichikawa)
104

Give reported cell viability for CCCCCOC(=O)NC\1=N\C(=O)N(\C=C1F)[C@@H]2O[C@H](C)[C@@H](O)[C@H]2O (P12-Ichikawa)
96.2

Give reported cell viability for C[C@]12C[C@H](O)[C@H]3[C@@H](CC\C4=C\C(=O)\C=C/[C@]34C)[C@@H]1CC[C@]2(O)C(=O)CO (P12-Ichikawa)
119

Give reported cell viability for COc1ccc(-c2cc3nccn3c(Nc3ncccc3C(N)=O)n2)cc1OC (P12-Ichikawa)
111

Give reported cell viability for COC1=C(N2CCNC(C)C2)C(=CC3=C1N(\C=C(C(O)=O)/C3=O)C4CC4)F (centres undefined) (P12-Ichikawa)
99.2

Give reported cell viability for CC1=CC=CC=C1N2\C(=N/C3=C(C(=CC=C3)C)C2=O)C[N]4C=NC5=C4N=CN=C5N (P12-Ichikawa)
116

Give reported cell viability for c1cncc(CN2CCC(n3ncc4c(N5CCOCC5)nc(-c5ccc6[nH]ccc6c5)nc43)CC2)c1 (P12-Ichikawa)
89.5

Give reported cell viability for O=C(NOCC(O)CO)c1cc(Br)c(F)c(F)c1Nc1ccc(I)cc1F (centres undefined) (P12-Ichikawa)
73.9

====

# Test system: NOMO1
# measurement_description: cell viability relative to DMSO control; higher = less cytotoxic
# condition_description: RPMI 5 mM glucose + 10% FBS; 48 h; 0.00702 µM
metric: cell viability (%)
Give the quantity in %, number only.

Return value of cell viability for input COC[C@H]1OC(=O)C2=COC3=C2[C@@]1(C)\C4=C(C5CCC(=O)[C@@]5(C)C[C@H]4OC(C)=O)/C3=O (stereo not given in full) , no commentary.
92.2

Return value of cell viability for input CN1[C@@H]2CC[C@H]1CC(OC(=O)c1c[nH]c3ccccc13)C2 (stereo not given in full) , no commentary.
120

Return value of cell viability for input Nc1ccccc1NC(=O)c1ccc(CNC(=O)OCc2cccnc2)cc1 , no commentary.
103

Return value of cell viability for input CC\1=C(C(\N=C(/N1)C2=CC(=NC=C2)Cl)C3=C(F)C=C(Cl)C=C3)/C(=O)NC4=C(F)C=C5[NH]N=CC5=C4 (stereo not given) , no commentary.
101

Return value of cell viability for input COc1ccc(C[C@@H](C)[C@@H](C)Cc2ccc(OC)c(OC)c2)cc1OC , no commentary.
88.6

Return value of cell viability for input COC1CCC(CC1)N(C(=O)C2CCC(C)CC2)C3=C(SC(=C3)\C4=C\CCCC4)C(O)=O (stereo not given) , no commentary.
104

Return value of cell viability for input CC(=O)O[C@H]1C(=O)[C@]2(C)[C@@H](O)C[C@H]3OC[C@@]3(OC(C)=O)C2[C@H](OC(=O)C4=CC=CC=C4)[C@]5(O)C[C@H](OC(=O)[C@H](O)[C@@H](NC(=O)C6=CC=CC=C6)C7=CC=CC=C7)\C(=C1/C5(C)C)C (stereo not given in full) , no commentary.
23

Return value of cell viability for input Cc1c(CCOc2ccc(C(=O)O)cc2)c2cc(Cl)ccc2n1C(c1ccccc1)c1ccccc1 , no commentary.
108

Return value of cell viability for input CN(Cc1cnc2nc(N)nc(N)c2n1)c1ccc(C(=O)N[C@@H](CCC(=O)O)C(=O)O)cc1 , no commentary.
123

Return value of cell viability for input CC(=O)Nc1ccc(OC[C@](C)(O)C(=O)Nc2ccc([N+](=O)[O-])c(C(F)(F)F)c2)cc1 , no commentary.
75.4

Return value of cell viability for input CC1(C)CCC[C@]2(C)[C@H]3CC(=O)O[C@]3(C)CC[C@@H]12 , no commentary.
118

Return value of cell viability for input CC(C)C(C)/C=C/C(C)C1CCC2C3=CC=C4CC(O)CCC4(C)C3CCC21C (stereo not given) , no commentary.
90.6

Return value of cell viability for input OC1=CC=C(C=C1)\C2=C\OC3=C(C=CC(=C3)O)C2=O , no commentary.
89

Return value of cell viability for input COc1cc2nc(N(C)CCCNC(=O)C3CCCO3)nc(N)c2cc1OC (stereo not given) , no commentary.
71.9

Return value of cell viability for input COc1c(C)cnc(Cn2cnc3c(Cl)nc(N)nc32)c1C , no commentary.
115
